# PROCEDURE SUMMARY: Apparent permeability across apical to basolateral side in human Caco-2 cells at pH 6.5 after 45 to 120 mins by LC-MS/MS analysis
# Format: ADME, cell-based
# ASSAY SETUP: Caco-2, pH 6.5, time 45-120 min
Param label: returns T when Papp A→B < 4 ×10⁻⁶ cm/s, returns F otherwise, including exact equality.

# input Input `Cc1nn2cc1CN(C)CCOCCNC(=O)c1nn(CCO)c3ccc(cc13)Nc1nccc-2n1` ; condition: Papp A→B strictly below 4 ×10⁻⁶ cm/s. Does it hold?
# output T

# input Please determine if `Cc1nn2cc1CN(C)CCOCCNC(=O)c1nn(C3COC3)c3ccc(cc13)Nc1nccc-2n1` is below 4 ×10⁻⁶ cm/s in terms of Papp A→B.
# output T

# input Does this compound meet the criterion Papp A→B < 4 ×10⁻⁶ cm/s? `Cc1nn2cc1CN(C)CCOCCNC(=O)c1nn(CCOC(=O)C(C)(C)C)c3ccc(cc13)Nc1nccc-2n1`
# output F

# input Here's an entry: `CC(=O)OC(C)(C)Cn1nc2c3cc(ccc31)Nc1nccc(n1)-n1cc(c(C)n1)CN(C)CCOCCNC2=O` . Is its Papp A→B below 4 ×10⁻⁶ cm/s?
# output F

# input # check: Papp A→B < 4 ×10⁻⁶ cm/s for `CC(=O)OCCn1nc2c3cc(ccc31)Nc1nccc(n1)-n1cc(c(C)n1)CN(C)CCOCCNC2=O`
# output T

# input Is the reported Papp A→B for `Cc1nn2cc1CN(C)N1CCC(O)(CCNC(=O)c3nn(C)c4ccc(cc34)Nc3nccc-2n3)CC1` strictly below 4 ×10⁻⁶ cm/s?
# output T

# input Papp A→B under 4 ×10⁻⁶ cm/s? Item: `Cc1nn2cc1CN(C)CCOCCNC(=O)c1nn(C)c3ccc(cc13)Nc1nccc-2n1`
# output F

====

logD reference
# PROCEDURE SUMMARY: Lipophilicity, logD of the compound in buffer/octanol volume ratio of 100:1 at pH 7.4 by shake flask method
# Assay type: physicochemical

Reference set (2 entries):
[
  {
    "MOLECULE SMILES": "Cc1nn2cc1CN(C)CCOCCNC(=O)c1nn(C[C@@H](C)O)c3ccc(cc13)Nc1nccc-2n1",
    "logD": 1.4
  },
  {
    "MOLECULE SMILES": "Cc1nn2cc1CN(C)N1CC(CNC(=O)c3nn(C)c4ccc(cc34)Nc3nccc-2n3)C1",
    "logD": 1.2
  }
]

# input For the molecule `Cc1nn2cc1CN(C)CCCCCNC(=O)c1nn(C)c3ccc(cc13)Nc1nccc-2n1` , give its reported logD.
# output 2.7

====

# PROCEDURE SUMMARY: Intrinsic clearance in rat hepatocytes assessed per million cells
# Assay type: ADME, cell-based, Hepatocyte
# ASSAY SETUP: read-out: CLH
MEASUREMENT KIND: hepatocyte CLint

Solved cases below.
[
  {
    "MOLECULE SMILES": "Cc1nn2cc1CN(C)CCOCCNC(=O)c1nn(CCO)c3ccc(cc13)Nc1nccc-2n1",
    "hepatocyte CLint": "< 1.6 µL/min/1e6 cells"
  },
  {
    "MOLECULE SMILES": "Cc1nn2cc1CN(C)CCOCCNC(=O)c1nn(C[C@H](C)O)c3ccc(cc13)Nc1nccc-2n1",
    "hepatocyte CLint": "6.5 µL/min/1e6 cells"
  }
]

As a next step, examine the compound that follows.
# input Tell me measured hepatocyte CLint for `Cc1nn2cc1CN(C)CCOCCNC(=O)c1nn(C)c3ccc(cc13)Nc1nccc-2n1` please.
# output 8.1 µL/min/1e6 cells

====

# PROCEDURE SUMMARY: Lipophilicity, logD of the compound in buffer/octanol volume ratio of 100:1 at pH 7.4 by shake flask method
# Format: physicochemical
Measured logD, listed per entry for reference.
Returns: the value as a bare number; no unit string appended.

[
  {
    "MOLECULE SMILES": "Cc1nn2cc1CN(C)CCOCCNC(=O)c1nn(CCO)c3ccc(cc13)Nc1nccc-2n1",
    "logD": 1.2
  },
  {
    "MOLECULE SMILES": "CC(=O)OCCn1nc2c3cc(ccc31)Nc1nccc(n1)-n1cc(c(C)n1)CN(C)CCOCCNC2=O",
    "logD": 1.9
  }
]

# input Give recorded logD. `Cc1nn2cc1CN(C)N1CCC(O)(CCNC(=O)c3nn(C)c4ccc(cc34)Nc3nccc-2n3)CC1`
# output 1.6
